Mark met for reported melting point of 200 °C or greater; mark not met for anything smaller.

query: Determine whether this molecule has melting point no lower than 200 °C: CCCNS(=O)(=O)c1ccccc1C=C1c2ccccc2CCc2ccccc21 [Example 6]
result: not met

query: Determine whether this molecule has melting point no lower than 200 °C: O=c1[nH]c2ccc(C=C3c4ccc(F)cc4CCc4cc(F)ccc43)cc2[nH]1 [Example 437]
result: met

query: Determine whether this molecule has melting point no lower than 200 °C: Oc1cccc(CC2c3ccccc3CCc3ccccc32)c1 [Example 126]
result: not met

query: Determine whether this molecule has melting point no lower than 200 °C: Cc1ccc(C=C2c3ccccc3CCc3ccccc32)c(S(=O)(=O)N2CCOCC2)c1 [Example 22]
result: not met

Now look at this one.
query: Determine whether this molecule has melting point no lower than 200 °C: O=C(Nc1ccc(C=C2c3ccccc3CCc3ccccc32)cc1)c1ccncc1 [Example 117]
result: met
